Data origin, for the record: patent US9469650B2

System: NCI-H226
ASSAY REMARKS: panel of 60 human tumor cell lines, growth inhibition (Non-Small Cell Lung Cancer)
CONDITION: Homo sapiens, NCI-H226
# strict inequality: GI50 < 10 µM yields Satisfied, everything else yields Not satisfied

compound_string=C=C1C(=O)O[C@H]2[C@H]1CC/C(COC(=O)OCCN(C)C)=C\CC[C@@]1(C)O[C@@H]21 experimental_system=NCI-H226 assigned_class="Not satisfied"
compound_string=C=C1C(=O)O[C@H]2[C@H]1CC/C(COC(=O)NCCN1CCCC1)=C\CC[C@@]1(C)O[C@@H]21 experimental_system=NCI-H226 assigned_class="Not satisfied"
compound_string=C=C1C(=O)O[C@H]2[C@H]1CC/C(COC(=O)OC)=C\CC[C@@]1(C)O[C@@H]21 experimental_system=NCI-H226 assigned_class=Satisfied
compound_string=C=C1C(=O)O[C@H]2[C@H]1CC/C(COC(=O)CCC(=O)NCc1ccc(Cl)nc1)=C\CC[C@@]1(C)O[C@@H]21 experimental_system=NCI-H226 assigned_class="Not satisfied"
compound_string=C=C1C(=O)O[C@H]2[C@H]1CC/C(COC(=O)OCCCN1CCCCC1)=C\CC[C@@]1(C)O[C@@H]21 experimental_system=NCI-H226 assigned_class=Satisfied
